- System: Fibroblast
- assay.details: Multiplex assay against human fibroblast
- Format: toxicity, cell-based
- measurement.conditions: 24 h, 10 µM, compound concentration 10 uM, replicate 2
measurement.name: Population Hoechst High Intensity Objects (%)
// note: answer is a bare numeric in %

The examples below pair each entry with its known result.
Cc1cn(-c2cc(NC(=O)c3ccc(C)c(Nc4nccc(-c5cccnc5)n4)c3)cc(C(F)(F)F)c2)cn1 [NILOTINIB] ... 2
CCOc1cc2ncc(C#N)c(Nc3ccc(OCc4ccccn4)c(Cl)c3)c2cc1NC(=O)/C=C/CN(C)C [NERATINIB] ... 26
CN1CCN(C(=O)C(C)(C)c2ccc(C(=O)Nc3cn4cc(-c5cc(C(C)(C)C)cc(C(C)(C)C)c5)ccc4n3)cc2)CC1 [T3-CLK-N] ... 38

Q) // map CN(C)C(=O)C(CCN1CCC(O)(c2ccc(Cl)cc2)CC1)(c1ccccc1)c1ccccc1.Cl [LOPERAMIDE HYDROCHLORIDE] to recorded Population Hoechst High Intensity Objects (%) (system: Fibroblast)
A) 10

Q) Give recorded Population Hoechst High Intensity Objects (%) with Fibroblast for the following molecule: "Cc1cc(C)c(S(=O)(=O)N(Cc2ccc(-c3cccc(S(C)(=O)=O)c3)cc2)Cc2ccc(C(F)(F)F)o2)c(C)c1"
A) 10

Q) Form field - read-out: Population Hoechst High Intensity Objects (%); system: Fibroblast; submitted item: CCCn1c(=O)c2[nH]c(-c3cnn(Cc4cccc(C(F)(F)F)c4)c3)nc2n(CC)c1=O [GS 6201]
A) 3

Q) API: value(readout= Population Hoechst High Intensity Objects (%), system= Fibroblast, query= "CNc1cc(Oc2cc(C(=O)Nc3cc(N4CCN(C)CC4)cc(C(F)(F)F)c3)ccc2C)ncn1" )
A) 48

---

Here, each record is paired with measured Population Membrane Permeable-Phenotype (%) data.
- Tested on: U2OS
- assay.details: Multiplex assay against U2OS
- Assay type: toxicity, cell-based
- measurement.conditions: human, 12 h, 1 µM, compound concentration 1 uM, replicate 1
Write it as a number; the unit % goes unstated.

Study these solved cases before continuing.
CCc1cccc(CC)c1NC(=O)c1nn(C)c2c1CCc1cnc(Nc3ccc(N4CCN(C)CC4)cc3OC)nc1-2 ... 100
CCCS(=O)(=O)Nc1ccc(F)c(C(=O)c2c[nH]c3ncc(Cl)cc23)c1F [PLX-4720] ... 14
COc1ccc(S(=O)(=O)N(CCO)c2ccccc2CN(C)C/C=C/c2ccc(Cl)cc2)cc1.O=P(O)(O)O ... 62
C=C1/C(=C\C=C2/CCC[C@]3(C)[C@@H]([C@H](C)/C=C/[C@H](C)C(C)C)CC[C@@H]23)C[C@@H](O)C[C@@H]1O [DOXERCALCIFEROL] ... 5
O=C(Nc1ccc(Cl)cc1)Nc1cccc(-c2cccc(N3CCCC3)n2)c1 ... 7
COc1cc2ncnc(Nc3ccc(F)c(Cl)c3)c2cc1NC(=O)/C=C/CN1CCCCC1 [DACOMITINIB ANHYDROUS] ... 72
COc1cccc2cc(-c3nc([C@H]4CC[C@H](C(=O)O)CC4)n4ncnc(N)c34)[nH]c12 [OSI-027] ... 10

# input for lookup
Q) For the compound shown here, C=CCn1c(=O)c2cnc(Nc3ccc(N4CCN(C)CC4)cc3)nc2n1-c1cccc(C(C)(C)O)n1 [ADAVOSERTIB] , give the reported Population Membrane Permeable-Phenotype (%).
A) 23

---

# Lookup of reported Population Pyknosed Nuclei (%) keyed by entry
- Tested on: U2OS
- assay.details: Multiplex assay against U2OS
- Assay type: toxicity, cell-based
- measurement.conditions: human, 24 h, 1 µM, compound concentration 1 uM, replicate 2
Form entry: enter the amount, then its unit.

Here is how some molecules turned out for Population Pyknosed Nuclei (%).
CN1CCC(=C2c3ccccc3CC(=O)c3sccc32)CC1.O=C(O)/C=C/C(=O)O [KETOTIFEN FUMARATE] ... 5%
S=C(NCCCc1c[nH]cn1)NCCCN(Cc1ccc(Cl)c(Cl)c1)c1ccc(Br)cn1 ... 0%
O=C(Nc1ccc(Cl)cc1)Nc1cccc(-c2cccc(N3CCCC3)n2)c1 ... 6%
O=C(Nc1ccc(-n2nc(-c3cccnc3)cc2C(F)(F)F)cn1)c1ccc(-c2ccccc2)c(F)c1 ... 8%
CNC(=O)c1ccc(Nc2nc(OC3CCCC3)c3c(-c4ccc5nc(C)oc5c4)c[nH]c3n2)c(OC)c1 ... 25%
CCOC(=O)c1c(C)[nH]c2ccc3c(c12)CN1CCc2cc(OC)ccc2C1O3 (stereo not drawn) ... 14%
Cn1nc(C(F)(F)F)cc1-c1cnc(N2CCc3cc(S(=O)(=O)Nc4c(F)cc(Cl)cc4F)cc(N4CCCC4=O)c32)nc1 ... 5%

Q) Sample "COc1cccc2cc(-c3nc([C@H]4CC[C@H](C(=O)O)CC4)n4ncnc(N)c34)[nH]c12" — what was its Population Pyknosed Nuclei (%)?
A) 3%

---

// values below are reported Population Membrane Permeable-Phenotype (%)
- Tested on: Fibroblast
- assay.details: Multiplex assay against human fibroblast
- Format: toxicity, cell-based
- measurement.conditions: 48 h, 10 µM, compound concentration 10 uM, replicate 1
Give just the number in %; leave the unit off.

Examples from the recorded data:
O=C(Cc1ccc(-c2ccc(OCCN3CCOCC3)cc2)cn1)NCc1ccccc1 ... 21
O=C1N/C(=N/c2ccccc2F)S/C1=C\c1ccc(C(=O)O)cc1 ... 29
O=C(Nc1ccc(-c2ccnc(Nc3ccc(N4CCOCC4)cc3)n2)cc1)[C@@H]1CCCN1 ... 15
CCN1CCN(Cc2ccc(Nc3ncc(F)c(-c4cc(F)c5nc(C)n(C(C)C)c5c4)n3)nc2)CC1.CS(=O)(=O)O ... 41
O=C1NC(=O)C(c2cnc3ccccn23)=C1c1cn2c3c(cc(F)cc13)CN(C(=O)N1CCCCC1)CC2 ... 28

Q) So what's the measured Population Membrane Permeable-Phenotype (%) for this one? CN1CCC(=C2c3ccccc3CC(=O)c3sccc32)CC1.O=C(O)/C=C/C(=O)O [KETOTIFEN FUMARATE]
A) 16

Q) Need Population Membrane Permeable-Phenotype (%) of "Cc1cn(-c2cc(NC(=O)c3ccc(C)c(Nc4nccc(-c5cccnc5)n4)c3)cc(C(F)(F)F)c2)cn1" , thanks.
A) 4

Q) Give its Population Membrane Permeable-Phenotype (%) value. Item: "C=C1/C(=C\C=C2/CCC[C@]3(C)[C@@H]([C@H](C)/C=C/[C@H](C)C(C)C)CC[C@@H]23)C[C@@H](O)C[C@@H]1O"
A) 23

Q) Given the molecule CN(C)C(=O)C(CCN1CCC(O)(c2ccc(Cl)cc2)CC1)(c1ccccc1)c1ccccc1.Cl [LOPERAMIDE HYDROCHLORIDE] , what is its reported Population Membrane Permeable-Phenotype (%)?
A) 2

Q) Value lookup for Population Membrane Permeable-Phenotype (%); key = "CCCS(=O)(=O)c1nc(NC2CC2)cc(-c2ccc3c(ccn3C3CC(C)(C)NC(C)(C)C3)c2)n1"
A) 76

Q) # input molecule: "CCOc1cc2ncc(C#N)c(Nc3ccc(OCc4ccccn4)c(Cl)c3)c2cc1NC(=O)/C=C/CN(C)C" ; wanted: its Population Membrane Permeable-Phenotype (%)
A) 5

---

- Tested on: HEK-293T
- assay.details: Multiplex assay against HEK293T
- Format: toxicity, cell-based
- measurement.conditions: human, 12 h, 1 µM, compound concentration 1 uM, replicate 2
Documented Population Healthy Nuclei (%) across a set of compounds
Note: unit % is implicit; provide only the numeric part.

Reference set, count: 6
O=C(Nc1ccc(-n2nc(-c3cccnc3)cc2C(F)(F)F)cn1)c1ccc(-c2ccccc2)c(F)c1 ... 37
Cn1nc(C(F)(F)F)cc1-c1cnc(N2CCc3cc(S(=O)(=O)Nc4c(F)cc(Cl)cc4F)cc(N4CCCC4=O)c32)nc1 ... 89
O=C(Nc1ccc(Cl)cc1)Nc1cccc(-c2cccc(N3CCCC3)n2)c1 ... 43
NC(=O)c1cccc(-c2cc(Nc3ccc(OC(F)(F)F)cc3)ncn2)c1 ... 88
O=C(Cc1ccc(-c2ccc(OCCN3CCOCC3)cc2)cn1)NCc1ccccc1 ... 30
S=C(NCCCc1c[nH]cn1)NCCCN(Cc1ccc(Cl)c(Cl)c1)c1ccc(Br)cn1 ... 44

Q) Consider the compound "CNC(=O)c1ccc(Nc2nc(OC3CCCC3)c3c(-c4ccc5nc(C)oc5c4)c[nH]c3n2)c(OC)c1" and give its measured Population Healthy Nuclei (%).
A) 77

Q) What Population Healthy Nuclei (%) value was documented for this compound, "COc1cc(N2CCN(C)CC2)ccc1Nc1ncc2c(n1)N(C)c1ccccc1C(=O)N2C" ?
A) 37

Q) So what does the record say about Population Healthy Nuclei (%) for "CCCn1c(=O)c2[nH]c(-c3cnn(Cc4cccc(C(F)(F)F)c4)c3)nc2n(CC)c1=O" ?
A) 43

---

- System: U2OS
- assay.details: Incucyte cell viability with U2OS; also: filed as whole numbers so only -1 and 0 and 1 occur
- Assay type: toxicity, cell-based
- measurement.conditions: human, 18 h, 10 µM, compound concentration 10 uM, replicate number 1, timepoint 18 hours
measurement.name: Growth Rate
The reply should be a number, written without any unit.

Would you please look over these solved cases?
Cn1nc(C(=O)NCc2ccc(C(=O)O)cc2)cc1-c1ccc2[nH]ccc2c1 [BI 4395] ... 1
O=C(c1ccc(C(=O)N2CCC(N3CCCC3)CC2)c(Nc2ccccc2)c1)N1CCC(N2CCCC2)CC1 ... 1
C=CC(=O)Nc1ccc2[nH]c(=O)n(C3CCN(C(=O)c4ccc(-c5nc6cc[nH]c(=O)c6cc5-c5ccccc5)cc4)CC3)c2c1 ... 1
N[C@@H](Cc1cc(I)c(Oc2ccc(O)c(I)c2)c(I)c1)C(=O)O [LIOTHYRONINE] ... 1
C[C@]12CCC(=O)C=C1CC[C@@H]1[C@@H]2[C@@H](O)C[C@]2(C=O)[C@@H](C(=O)CO)CC[C@@H]12 [ALDOSTERONE] ... 1

Lab note: next compound to report on.
Q) Please look up its Growth Rate: "CCCS(=O)(=O)c1nc(NC2CC2)cc(-c2ccc3c(ccn3C3CC(C)(C)NC(C)(C)C3)c2)n1"
A) 0
